# assay-comment: Antiproliferative activity against human U373 cells assessed as cell viability after 72 hrs by MTT assay
# Type: functional, cell-based, U-373MG ATCC
# condition-details: U373 MG
Assignment: determine reported IC50 for the given molecules.
Respond with the bare value in µM.

molecule C=C1CC[C@H]2[C@](C)(CCC=C(C)C)[C@H](O)CC[C@]2(C)[C@@H]1Cc1c(O)c(C)c(C)oc1=O , IC50 observed: 84

Measured IC50, C=C1CC[C@@H]2[C@](C)(CC[C@H]3O[C@H](C=C(C)C)C[C@@]23C)[C@@H]1Cc1c(O)c(C)c(C)oc1=O : 63
